Entries and their inhibition at 1 µM
Target: m-cGAS (Mus musculus, UniProt Q8C6L5)
Sequence (Q8C6L5 whole entry): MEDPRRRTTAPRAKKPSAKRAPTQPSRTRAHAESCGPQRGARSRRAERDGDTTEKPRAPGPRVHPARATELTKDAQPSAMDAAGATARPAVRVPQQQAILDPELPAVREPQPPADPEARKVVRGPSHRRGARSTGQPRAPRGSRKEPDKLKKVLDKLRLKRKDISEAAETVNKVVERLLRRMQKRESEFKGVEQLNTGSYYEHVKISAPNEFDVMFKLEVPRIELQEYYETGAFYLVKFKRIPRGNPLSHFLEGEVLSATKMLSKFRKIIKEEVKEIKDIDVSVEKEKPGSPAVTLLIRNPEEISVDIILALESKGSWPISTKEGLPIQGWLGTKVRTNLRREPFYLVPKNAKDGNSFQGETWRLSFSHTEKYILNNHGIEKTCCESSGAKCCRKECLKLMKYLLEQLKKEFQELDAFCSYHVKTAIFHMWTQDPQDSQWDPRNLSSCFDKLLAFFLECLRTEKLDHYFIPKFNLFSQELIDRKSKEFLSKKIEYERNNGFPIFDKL
Experiment: Cell-free mouse cGAS enzyme inhibition assay (ATP depletion, Kinase-Glo Max)
Assay type: biochemical
Details: 1 h; read-out: m-cGAS, conc. 1 μM

Recorded results for 4 compounds are shown here.
[
  {
    "CHEMICAL_STRUCTURE": "NCC(=O)N1CCc2c(sc3c(Cl)c(Cl)cc(-c4ncccn4)c23)C1",
    "inhibition at 1 µM": "0 to 24%"
  },
  {
    "CHEMICAL_STRUCTURE": "O=C(CO)N1CCc2oc3c(Cl)c(Cl)cc(-c4cncnc4)c3c2C1",
    "inhibition at 1 µM": "0 to 24%"
  },
  {
    "CHEMICAL_STRUCTURE": "Cn1ncc(-c2cc(Cl)c(Cl)c3sc4c(c23)CCN(C(=O)CN)C4)n1",
    "inhibition at 1 µM": "25 to 49%"
  },
  {
    "CHEMICAL_STRUCTURE": "NCC(=O)N1CCc2c(sc3c(Cl)c(Cl)cc(-c4cnccn4)c23)C1",
    "inhibition at 1 µM": "25 to 49%"
  }
]

Problem: For the compound NCC(=O)N1CCc2c(sc3c(Cl)c(Cl)cc(-c4ccncc4)c23)C1 , what inhibition at 1 µM is on record?
Result: 25 to 49%

---

Assay: Metabolic stability in mouse liver microsomes
Details: mouse, liver microsomes
TEST_READOUT: microsomal CLint

# count of solved cases: 2
[
  {
    "MOLECULE": "O=C(O)Cc1ccccc1Nc1c(Cl)cccc1Cl [Diclofenac, reference compound]",
    "VALUE_MEASURED": "36.5 µL/min/mg"
  },
  {
    "MOLECULE": "Cn1cc(-c2cc(Cl)c(Cl)c3c2c2c(n3C)CCN(C(=O)CN)C2)cn1",
    "VALUE_MEASURED": "< 9.6 µL/min/mg"
  }
]

Problem: What does the data say about its microsomal CLint? Entry: Cn1ccc(-c2cc(Cl)c(Cl)c3oc4c(c23)CN(C(=O)CO)CC4)n1
Result: < 7.5 µL/min/mg

Problem: Queued: Cn1cc(-c2cc(Cl)c(Cl)c3sc4c(c23)CCN(C(=O)CN)C4)cn1
Result: < 9.6 µL/min/mg

---

Target: h-cGAS (Homo sapiens, UniProt Q8N884)
Sequence (Q8N884 whole entry): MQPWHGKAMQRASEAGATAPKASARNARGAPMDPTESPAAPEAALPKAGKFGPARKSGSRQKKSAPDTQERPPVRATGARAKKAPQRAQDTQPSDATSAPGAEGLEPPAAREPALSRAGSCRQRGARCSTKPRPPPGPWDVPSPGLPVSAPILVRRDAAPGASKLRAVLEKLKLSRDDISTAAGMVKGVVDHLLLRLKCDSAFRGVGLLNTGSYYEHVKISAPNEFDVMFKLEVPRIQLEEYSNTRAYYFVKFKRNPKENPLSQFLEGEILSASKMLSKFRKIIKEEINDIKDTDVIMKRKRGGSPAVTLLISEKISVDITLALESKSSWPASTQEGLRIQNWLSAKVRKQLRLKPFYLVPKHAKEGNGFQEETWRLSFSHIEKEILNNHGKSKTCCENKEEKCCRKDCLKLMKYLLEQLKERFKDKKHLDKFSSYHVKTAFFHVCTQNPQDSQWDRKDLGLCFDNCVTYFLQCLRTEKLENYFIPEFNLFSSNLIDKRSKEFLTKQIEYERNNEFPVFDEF
Test: Cell-free human cGAS enzyme inhibition assay (ATP depletion, Kinase-Glo Max)
Format: biochemical
Details: 3 h; read-out: h-cGAS, conc. 1 μM
TEST_READOUT: inhibition at 1 µM

Example entries and their recorded answers appear below.
[
  {
    "CHEMICAL_STRUCTURE": "Cn1ccc(-c2cc(Cl)c(Cl)c3oc4c(c23)CCN(C(=O)CN)C4)n1",
    "inhibition at 1 µM": "50 to 74%"
  },
  {
    "CHEMICAL_STRUCTURE": "Cn1cc(-c2cc(Cl)c(Cl)c3oc4c(c23)CCN(C(=O)CN)C4)cn1",
    "inhibition at 1 µM": "50 to 74%"
  },
  {
    "CHEMICAL_STRUCTURE": "Cc1csc(-c2cc(Cl)c(Cl)c3sc4c(c23)CCN(C(=O)CN)C4)n1",
    "inhibition at 1 µM": "25 to 49%"
  }
]

Problem: May I ask what inhibition at 1 µM has been recorded for Cn1ccc(-c2cc(Cl)c(Cl)c3sc4c(c23)CCN(C(=O)CN)C4)n1 ?
Result: 25 to 49%

Problem: Input O=C(CO)N1CCc2oc3c(Cl)c(Cl)cc(-c4cncnc4)c3c2C1
Result: 25 to 49%
